Recorded values, source the RNAGym collection of RNA variant scans (doi:10.7554/elife.80360).

What self-cleavage was measured for each of the following?
B1: HDV Ribozyme (parent)
chain: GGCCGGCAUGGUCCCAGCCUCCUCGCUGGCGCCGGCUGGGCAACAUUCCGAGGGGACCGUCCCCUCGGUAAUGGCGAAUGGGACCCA

Variants of: B1
Test Name: self-cleavage, relative activity (ratio to wild type); higher = more cleavage; co-transcriptional
Numbers only.

[
  {
    "Mut": "C41U A43G",
    "Endpoint Result": 0.356
  }
]

Hello, I would appreciate it if you could give self-cleavage for each entry below.
1. C13G G38U
2. G28A A78G
3. G68A C86U
4. C26G G40U

[0.0292, 0.185, 0.965, 0.9]
